Listing of entries alongside the reported Time required for ventricular extrasystole to occur.
- System: Ouabain-Induced Arrythmia
- ASSAY DETAILS: Activity against ouabain-induced arrythmia in guinea pigs
- Assay type: in vivo, Hartly male guinea pigs
- PARTICULARS: ouabain 5 μg/kg/min; 10 mg/kg via cervical vein; untreated 28.5 min
- Protocol: Activity Against Ouabain-Induced Arrythmia in Guinea Pigs Hartly male guinea pigs (5-6 wk. old, two animals per group) weighing about 350 g on average were anesthetized by intraperitoneal administration of 1.2 g/kg of urethane. A polyethylene cannula was inserted into both the cervical vein and the carotid artery; the drug was administered through the cervical vein while the blood pressure was measured at the carotid artery. […]
The reply should be a number in min, with the unit left off.

Below: 5 compounds and their reported Time required for ventricular extrasystole to occur.
COMPOUND | VAL
CCN(CC)CCCNCCC(=O)Nc1c(C)cccc1C | 34.4
Cc1cccc(C)c1NC(=O)CCNCCCN(C(C)C)C(C)C | 35.3
Cc1cccc(C)c1NC(=O)CCNCCNC(C)C | 42.5
CC(C)N(CCC(C(N)=O)(c1ccccc1)c1ccccn1)C(C)C (stereo not drawn) [Disopyramide, reference compound] | 41.1
Cc1cccc(C)c1NC(=O)CCNCCCN(C)C | 38.1

--- query ---
Request: Give recorded Time required for ventricular extrasystole to occur with Ouabain-Induced Arrythmia for the following compound: Cc1cccc(C)c1NC(=O)CCNCCCN(CC(C)C)CC(C)C
Response: 45.4

---

- Test system: Aconitine-Induced Arrythmia
- ASSAY DETAILS: Activity against aconitine-induced arrythmia in rats
- Format: in vivo, Sprague-Dowley male rats
- PARTICULARS: aconitine 1 μg/kg/min; 5 mg/kg intravenously; untreated 35.3 min
MEASURED PROPERTY: Time required for ventricular fibrillation to occur (min)
Unit min implied. Number only.

SMILES DATA | VAL
Cc1cccc(C)c1NC(=O)CCNCCCN(C)C | 36.5
Cc1cccc(C)c1NC(=O)CCNCCCN(CC(C)C)CC(C)C | 30.2
Cc1cccc(C)c1NC(=O)CCNCCCN(C(C)C)C(C)C | 73.8

Now for the compound whose Time required for ventricular fibrillation to occur we want.
Request: Please look up its Time required for ventricular fibrillation to occur: CCc1cccc(CC)c1NC(=O)CCNCCCCCN(CC(C)C)CC(C)C
Response: 84.5

---

- Tested on: Blood Sugar Level
- ASSAY DETAILS: Effect on blood sugar level
- Assay type: in vivo, SD/Slc male rats
- PARTICULARS: 200 mg/kg perorally; 6 hr; starved overnight
Please assign Not fulfilled whenever Blood sugar level, 6 hr (mean ± S.E.) is at or above 60 mg/dL, and Fulfilled whenever it is below.

MOLECULE | CAT
CC(C)N(CCC(C(N)=O)(c1ccccc1)c1ccccn1)C(C)C (centres unmarked) [Disopyramide, reference compound] | Fulfilled

Request: Could you please tell me whether Blood sugar level, 6 hr (mean ± S.E.) recorded for Cc1cccc(C)c1NC(=O)CCNCCCN(C)C [Compound No. 2] is less than 60 mg/dL?
Response: Fulfilled

Request: Please do the same for Cc1cccc(C)c1NC(=O)CCNCCCN(C(C)C)C(C)C [compound 11] as well.
Response: Not fulfilled

Request: And the next one, Cc1cccc(C)c1NC(=O)CCNCCN(C(C)C)C(C)C [Compound No. 1] ?
Response: Not fulfilled

Provenance of the data: patent US4855497A
